# ASSAYED_TARGET: full-length hTRIM21 with C-terminal NanoLuc fusion (Homo sapiens, UniProt P19474)
# Sequence (P19474 whole entry, the tested form may be a part): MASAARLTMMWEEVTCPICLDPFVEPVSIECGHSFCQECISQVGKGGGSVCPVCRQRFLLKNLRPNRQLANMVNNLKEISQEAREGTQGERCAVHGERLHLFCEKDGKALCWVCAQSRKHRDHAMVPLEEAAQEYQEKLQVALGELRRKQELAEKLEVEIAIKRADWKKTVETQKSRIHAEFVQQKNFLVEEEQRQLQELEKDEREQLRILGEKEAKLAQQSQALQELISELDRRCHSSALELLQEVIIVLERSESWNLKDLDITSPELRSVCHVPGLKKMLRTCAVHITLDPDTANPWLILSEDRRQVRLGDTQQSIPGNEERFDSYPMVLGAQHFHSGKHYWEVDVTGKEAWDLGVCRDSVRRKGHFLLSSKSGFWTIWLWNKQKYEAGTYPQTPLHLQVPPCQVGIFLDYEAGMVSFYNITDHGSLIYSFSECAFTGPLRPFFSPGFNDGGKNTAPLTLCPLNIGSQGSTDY
# ASSAY_INFO: cell-based
# TEST_CONDITIONS: NanoBRET EC50 (intact), intact HEK293T cells, tracer AL244 (2)
OBSERVATION_TYPE: pEC50
In textbook form, pEC50 equals minus log to base ten of the concentration in mol/L.

Field: pEC50 (full-length hTRIM21 with C-terminal NanoLuc fusion (Homo sapiens, UniProt P19474)). Entry: O=C(Nc1ccc(S(=O)(=O)Nc2ccccn2)cc1)c1ccccc1 [AL257 (3)]
3.84

* * *

# ASSAYED_TARGET: His-SUMO-hTRIM21 PRY-SPRY (Homo sapiens, UniProt P19474)
# Construct: Human TRIM21 PRY-SPRY domain (residues V287-I465, UniProt-ID: P19474); made in house; host or cells: E. coli BL21(DE3)
# ASSAY_INFO: SPR fragment screening, human TRIM21 PRY-SPRY
# Format: binding
Each entry belongs to exactly one class, chosen by where its SPR hTRIM21 (Response) falls: class A = under 40, class B = from 40 up to 60, class C = 60 and over

Into which category would you place CS(=O)(=O)NCC1CCNCC1 ?
class A

Moving on to O=C(O)COCc1ccccc1
class B

Moving on to Cl.O=C(c1cn[nH]c1)N1CCCC1
class C

Moving on to CN(C)C(=O)c1ccc2c(c1)CCCN2
class C

Moving on to CCC(=O)Nc1nc(C)cs1
class B

Moving on to COC1CN(S(=O)(=O)N2CCCC2)C1
class A

Moving on to CCOc1ccccc1N1CCNCC1.Cl
class C

Moving on to CNS(=O)(=O)Cc1cc(C)on1
class B

Moving on to CN(CC(=O)N1CCCCC1)S(C)(=O)=O
class A

Moving on to O=C(NC1CC1)c1cnn2cccnc12
class B

* * *

# ASSAYED_TARGET: full-length hTRIM21 with C-terminal NanoLuc fusion (Homo sapiens, UniProt P19474)
# ASSAY_INFO: cell-based
# TEST_CONDITIONS: NanoBRET EC50 (intact), intact (live) HEK293T cells, tracer AL244 (2)
OBSERVATION_TYPE: pEC50
In textbook form, pEC50 equals minus log to base ten of the concentration in mol/L.

Looking for the measured pEC50 of CSc1cc(F)ccc1-c1ccc(C(=O)NCC2CCCCC2)c(S(C)(=O)=O)c1 [AL236 (1)] , can you help?
6.71

* * *

# ASSAYED_TARGET: full-length hTRIM21 with C-terminal NanoLuc fusion (Homo sapiens, UniProt P19474)
# ASSAY_INFO: cell-based
# TEST_CONDITIONS: NanoBRET EC50 (lysed), permeabilized (lysed mode, digitonin) cells, tracer AL244 (2)
OBSERVATION_TYPE: pEC50
In textbook form, pEC50 equals minus log to base ten of the concentration in mol/L.

Looking for the measured pEC50 of CSc1cc(F)ccc1-c1ccc(C(=O)NCC2CCCCC2)c(S(C)(=O)=O)c1 , can you help?
6.53

* * *

# ASSAYED_TARGET: His-SUMO-hTRIM21 PRY-SPRY (Homo sapiens)
# Construct: Human TRIM21 PRY-SPRY domain (residues V287-I465, UniProt-ID: P19474); made in house; host or cells: E. coli BL21(DE3)
# ASSAY_INFO: SPR fragment screening, human TRIM21 PRY-SPRY
# Assay type: binding
# TEST_CONDITIONS: single dose 500 µM fragment; relative response, suramin reference threshold 100 relative RU
OBSERVATION_TYPE: SPR hTRIM21 (Response)
Field format: numeric only.

Looking for the measured SPR hTRIM21 (Response) of CCC(NC)c1ccncc1 (centres unmarked) [Fragment Z1250132788] , can you help?
50.74

Moving on to CC(=O)N1CCCC(CNS(C)(=O)=O)C1 (centres unmarked) [Fragment Z438096750]
40.93

Moving on to O=C(c1ccco1)N1CCN(C(=O)C2CC2)CC1 [Fragment Z32327641]
35.48

Moving on to O=C1CN(Cc2ccccc2)CC(=O)N1 [Fragment Z3220108246]
60.94

Moving on to COC1CN(Cc2cncs2)CCC1C (centres unmarked) [Fragment Z1787761777]
-50.75

Moving on to CC(=O)NC1CNc2ccccc2C1 (centres unmarked) [Fragment Z1492796719]
55.11

Moving on to CC#CCN(C)C1CCS(=O)(=O)CC1 [Fragment Z1318110042]
20.83

Moving on to CC(C)N(C)c1ncnc2c1cnn2C [Fragment Z328695024]
48.11

Moving on to Cc1cc(N2CCCCC2)nc(CO)n1 [Fragment Z1980894300]
66.59

Moving on to Cc1c(Cl)cccc1NC(=O)[C@@H]1CCCO1 [Fragment Z1545312521]
24.5

Moving on to CN(C)c1ccncc1 [Fragment Z1245793018]
47.83

Values compiled from paper PMC12166061.
